The measured values listed here are drawn from patent US20240400708A1.

The following binders are listed with their measured Kd values.
Target: feline FcRn complex (FcRn-α subunit and β-microglobulin), biotin labeled (feline)
Assay: SPR, pH 7.4
Return type: number; implicit unit µM.

*Q* Entry feline IgG1a S252M/S428M/S434N/H436Y (antibody, part only; not given: Variable domains, not shown: another chain or arm of the molecule) constant: ASTTAPSVFPLAPSCGTTSGATVALACLVLGYFPEPVTVSWNSGALTSGVHTFPAVLQASGLYSLSSMVTVPSSRWLSDTFTCNVAHPPSNTKVDKTVRKTDHPPGPKPCDCPKCPPPEMLGGPSIFIFPPKPKDTLMISRTPEVTCLVVDLGPDDSDVQITWFVDNTQVYTAKTSPREEQFNSTYRVVSVLPILHQDWLKGKEFKCKVNSKSLPSPIERTISKAKGQPHEPQVYVLPPAQEELSRNKVSVTCLIKSFHPPDIAVEWEITGQPEPENNYRTTPPQLDSDGTYFVYSKLSVDRSHWQRGNTYTCSVMHEALHNHYTQKSLTQSPGK : reported Kd = ?
*A* 0.0287

Here is the next item to consider.
*Q* Return reported Kd; argument: feline IgG1a S252Y/S434W (antibody, part only; not given: Variable domains, not shown: another chain or arm of the molecule) constant: ASTTAPSVFPLAPSCGTTSGATVALACLVLGYFPEPVTVSWNSGALTSGVHTFPAVLQASGLYSLSSMVTVPSSRWLSDTFTCNVAHPPSNTKVDKTVRKTDHPPGPKPCDCPKCPPPEMLGGPSIFIFPPKPKDTLYISRTPEVTCLVVDLGPDDSDVQITWFVDNTQVYTAKTSPREEQFNSTYRVVSVLPILHQDWLKGKEFKCKVNSKSLPSPIERTISKAKGQPHEPQVYVLPPAQEELSRNKVSVTCLIKSFHPPDIAVEWEITGQPEPENNYRTTPPQLDSDGTYFVYSKLSVDRSHWQRGNTYTCSVSHEALHWHHTQKSLTQSPGK
*A* 8.38
